- System: IFNγ-induced NO production in RAW 264.7 cells
- Assay method text: Nitric Oxide Suppression Assay (IFNγ-induced NO, Griess nitrite readout)
- Format: cell-based, mouse
- Details: Table 2; ratio to RTA402
Reported metric: Avg NO IC50 Relative to RTA402 (fold)

Look at this compound and give its reported Avg NO IC50 Relative to RTA402 (fold). C[C@@H]1[C@H]2[C@H]3C(=O)C=C4[C@@]5(C)C=C(C#N)C(=O)C(C)(C)[C@@H]5CC[C@@]4(C)[C@]3(C)CC[C@@]2(CNC(=O)C(F)F)CC[C@H]1C
1.15

And Cc1nnc([C@]23CC[C@@H](C)[C@H](C)[C@H]2[C@H]2C(=O)C=C4[C@@]5(C)C=C(C#N)C(=O)C(C)(C)[C@@H]5CC[C@@]4(C)[C@]2(C)CC3)o1 ?
4.94

a: CCS(=O)(=O)NC[C@]12CC[C@@H](C)[C@H](C)[C@H]1[C@H]1C(=O)C=C3[C@@]4(C)C=C(C#N)C(=O)C(C)(C)[C@@H]4CC[C@@]3(C)[C@]1(C)CC2
b: C[C@@H]1[C@H]2[C@H]3C(=O)C=C4[C@@]5(C)C=C(C#N)C(=O)C(C)(C)[C@@H]5CC[C@@]4(C)[C@]3(C)CC[C@@]2(CN(C)C(=O)C(C)(F)F)CC[C@H]1C
Between a and b , whose measured Avg NO IC50 Relative to RTA402 (fold) reads higher? Your choice should be expressed through its label.
b
(b: 9.52 fold, a: 2.52 fold)

---

- Test system: IFNγ-induced NO production in RAW 264.7 cells
- Assay method text: Nitric Oxide Suppression Assay (IFNγ-induced NO, Griess nitrite readout)
- Assay type: cell-based, mouse
- Details: Mus musculus, RAW264.7, Table 2; RAW 264.7 cells, 2 h pretreatment, 20 ng/mL interferon gamma 24 h; read-out: Avg NO IC50 (nM) (Mean ± SD)
Reported metric: IC50 (nM)

Example compounds with recorded IC50:
Look at this compound and give its reported IC50. CCNC(=O)CC[C@]12CC[C@@H](C)[C@H](C)[C@H]1[C@H]1C(=O)C[C@@H]3[C@@]4(C)C=C(C#N)C(=O)C(C)(C)[C@@H]4CC[C@@]3(C)[C@]1(C)CC2 [Compound T103]
22.1

And C[C@@H]1[C@H]2[C@H]3C(=O)C=C4[C@@]5(C)C=C(C#N)C(=O)C(C)(C)[C@@H]5CC[C@@]4(C)[C@]3(C)CC[C@@]2(CN(C)C(=O)C(C)(F)F)CC[C@H]1C [Compound T38] ?
39.2

And C[C@@H]1[C@H]2[C@H]3C(=O)C=C4[C@@]5(C)C=C(C#N)C(=O)C(C)(C)[C@@H]5CC[C@@]4(C)[C@]3(C)CC[C@@]2(CNC(=O)C2CC2)CC[C@H]1C [Compound T19] ?
2.33

P: C[C@@H]1[C@H]2[C@H]3C(=O)C=C4[C@@]5(C)C=C(C#N)C(=O)C(C)(C)[C@@H]5CC[C@@]4(C)[C@]3(C)CC[C@@]2(CNS(=O)(=O)C2CC2)CC[C@H]1C [Compound T33]
Q: C[C@@H]1[C@H]2[C@H]3C(=O)C=C4[C@@]5(C)C=C(C#N)C(=O)C(C)(C)[C@@H]5CC[C@@]4(C)[C@]3(C)CC[C@@]2(n2ccnn2)CC[C@H]1C [Compound T60]
Of the pair P and Q , name the member with the lesser recorded IC50. Your choice should be expressed through its label.
P

---

- Test system: IFNγ-induced NO production in RAW 264.7 cells
- Assay method text: Nitric Oxide Suppression Assay (IFNγ-induced NO, Griess nitrite readout)
- Type: cell-based, mouse
- Details: Table 2; ratio to RTA402
Reported metric: Avg NO IC50 Relative to RTA402 (fold)

Example compounds with recorded Avg NO IC50 Relative to RTA402 (fold):
Look at this compound and give its reported Avg NO IC50 Relative to RTA402 (fold). CO/N=C/[C@]12CC[C@@H](C)[C@H](C)[C@H]1[C@H]1C(=O)C=C3[C@@]4(C)C=C(C#N)C(=O)C(C)(C)[C@@H]4CC[C@@]3(C)[C@]1(C)CC2
8.81

And C[C@@H]1[C@H]2[C@H]3C(=O)C=C4[C@@]5(C)C=C(C#N)C(=O)C(C)(C)[C@@H]5CC[C@@]4(C)[C@]3(C)CC[C@@]2(CCC(=O)N2CCC2)CC[C@H]1C ?
1.09

I: C[C@@H]1[C@H]2[C@H]3C(=O)C=C4[C@@]5(C)C=C(C#N)C(=O)C(C)(C)[C@@H]5CC[C@@]4(C)[C@]3(C)CC[C@@]2(N2CCOC2=O)CC[C@H]1C
II: C[C@@H]1[C@H]2[C@H]3C(=O)C=C4[C@@]5(C)C6O[C@@]6(C#N)C(=O)C(C)(C)[C@@H]5CC[C@@]4(C)[C@]3(C)CC[C@@]2(NC(=O)C(C)(F)F)CC[C@H]1C (stereo partly shown)
Between I and II , whose measured Avg NO IC50 Relative to RTA402 (fold) reads higher? Your choice should be expressed through its label.
II
(II: 28.1 fold, I: 5.03 fold)

1: Cc1cn(C[C@]23CC[C@@H](C)[C@H](C)[C@H]2[C@H]2C(=O)C=C4[C@@]5(C)C=C(C#N)C(=O)C(C)(C)[C@@H]5CC[C@@]4(C)[C@]2(C)CC3)nn1
2: C[C@@H]1[C@H]2[C@H]3C(=O)C=C4[C@@]5(C)C=C(C#N)C(=O)C(C)(C)[C@@H]5CC[C@@]4(C)[C@]3(C)CC[C@@]2(CNC(=O)C(C)(F)F)CC[C@H]1C
3: C[C@@H]1[C@H]2[C@H]3C(=O)C=C4[C@@]5(C)C=C(C#N)C(=O)C(C)(C)[C@@H]5CC[C@@]4(C)[C@]3(C)CC[C@@]2(CNC(=O)C2CC2)CC[C@H]1C
4: COC(=O)[C@]12CC[C@@H](C)[C@H](C)[C@H]1[C@H]1C(=O)C[C@@H]3[C@@]4(C)C=C(C#N)C(=O)C(C)(C)[C@@H]4CC[C@@]3(C)[C@]1(C)CC2
5: C[C@@H]1[C@H]2[C@H]3C(=O)C=C4[C@@]5(C)C=C(C#N)C(=O)C(C)(C)[C@@H]5CC[C@@]4(C)[C@]3(C)CC[C@@]2(C(=O)N2CCCC2)CC[C@H]1C
# rank_down: sort by Avg NO IC50 Relative to RTA402 (fold), max first Return the labels ranked in the requested order, please.
4, 5, 1, 2, 3

1: C[C@@H]1[C@H]2[C@H]3C(=O)C=C4[C@@]5(C)C=C(C#N)C(=O)C(C)(C)[C@@H]5CC[C@@]4(C)[C@]3(C)CC[C@@]2(n2cnnn2)CC[C@H]1C
2: CCC(=O)NC[C@]12CC[C@@H](C)[C@H](C)[C@H]1[C@H]1C(=O)C=C3[C@@]4(C)C=C(C#N)C(=O)C(C)(C)[C@@H]4CC[C@@]3(C)[C@]1(C)CC2
3: C[C@@H]1[C@H]2[C@H]3C(=O)C=C4[C@@]5(C)C=C(C#N)C(=O)C(C)(C)[C@@H]5CC[C@@]4(C)[C@]3(C)CC[C@@]2(CN2NCCC2=O)CC[C@H]1C
4: C[C@@H]1[C@H]2[C@H]3C(=O)C=C4[C@@]5(C)C=C(C#N)C(=O)C(C)(C)[C@@H]5CC[C@@]4(C)[C@]3(C)CC[C@@]2(CO)CC[C@H]1C
Sort entries by Avg NO IC50 Relative to RTA402 (fold) from minimum to maximum value. Return the labels ranked in the requested order, please.
2, 4, 3, 1

A: C[C@@H]1[C@H]2[C@H]3C(=O)C=C4[C@@]5(C)C=C(C#N)C(=O)C(C)(C)[C@@H]5CC[C@@]4(C)[C@]3(C)CC[C@@]2(CC(=O)NC2CC2)CC[C@H]1C
B: CCc1noc([C@]23CC[C@@H](C)[C@H](C)[C@H]2[C@H]2C(=O)C=C4[C@@]5(C)C=C(C#N)C(=O)C(C)(C)[C@@H]5CC[C@@]4(C)[C@]2(C)CC3)n1
Between A and B , whose measured Avg NO IC50 Relative to RTA402 (fold) reads higher? Your choice should be expressed through its label.
B

---

- System: Nrf2 / ARE-dependent luciferase in AREc32 reporter cell line
- Assay method text: AREc32 luciferase reporter activation (Nrf2 induction)
- Assay type: cell-based, human
- Details: Table 2; ratio to RTA402
Below: a set of entries, each annotated with reported Relative Avg AREc32 EC2X Relative to RTA402 (fold).
Numbers only here, please. The scale is fold.

Look at this molecule and give its reported Relative Avg AREc32 EC2X Relative to RTA402 (fold). Cc1nnc([C@]23CC[C@@H](C)[C@H](C)[C@H]2[C@H]2C(=O)C=C4[C@@]5(C)C=C(C#N)C(=O)C(C)(C)[C@@H]5CC[C@@]4(C)[C@]2(C)CC3)o1
0.673

And COCCc1noc([C@]23CC[C@@H](C)[C@H](C)[C@H]2[C@H]2C(=O)C=C4[C@@]5(C)C=C(C#N)C(=O)C(C)(C)[C@@H]5CC[C@@]4(C)[C@]2(C)CC3)n1 ?
0.595

And C[C@@H]1[C@H]2[C@H]3C(=O)C=C4[C@@]5(C)C=C(C#N)C(=O)C(C)(C)[C@@H]5CC[C@@]4(C)[C@]3(C)CC[C@@]2(N2CCOC2=O)CC[C@H]1C ?
1.23

And CCNC(=O)CC[C@]12CC[C@@H](C)[C@H](C)[C@H]1[C@H]1C(=O)C[C@@H]3[C@@]4(C)C=C(C#N)C(=O)C(C)(C)[C@@H]4CC[C@@]3(C)[C@]1(C)CC2 ?
4.52

And C[C@@H]1[C@H]2[C@H]3C(=O)C=C4[C@@]5(C)C=C(C#N)C(=O)C(C)(C)[C@@H]5CC[C@@]4(C)[C@]3(C)CC[C@@]2(Cn2ccnn2)CC[C@H]1C ?
0.666

Now take the following molecule into account.
Look at this molecule and give its reported Relative Avg AREc32 EC2X Relative to RTA402 (fold). COC(=O)CC[C@]12CC[C@@H](C)[C@H](C)[C@H]1[C@H]1C(=O)C=C3[C@@]4(C)C=C(C#N)C(=O)C(C)(C)[C@@H]4CC[C@@]3(C)[C@]1(C)CC2
1.1
